Molecular target: [Pyruvate dehydrogenase (acetyl-transferring)] kinase isozyme 2, mitochondrial (Homo sapiens)
Experiment: Inhibition of PDK2 (unknown origin)
endpoint.name: EC50 (nM)
Form entry: value (nM) — number only.

// query Looking for the measured EC50 of CN(C)C(=O)c1ccc(S(=O)(=O)c2ccc(NC(=O)[C@@](C)(O)C(F)(F)F)c(Cl)c2)cc1 , can you help?
// result 80

* * *

System: SAOS-2
Experiment: Antiproliferative activity against human Saos2 cells assessed as reduction in cell viability incubated for 72 hrs by MTT assay
Assay type: functional, cell-based
Details: SAOS-2, 72 h
endpoint.name: pIC50
The scale used: pIC50 is minus the common logarithm of the concentration in molar units.

- compound: "Cc1ccccc1OCC(O)Cn1c(C2CC(=O)N(C(C)(C)C)C2)nc2ccccc21 (centres undefined)"
  meas.value: 5.05
- compound: "Cc1cc(=O)n2nc(N3CCN(C(=O)Cc4c[nH]c5ccccc45)CC3)nc2[nH]1"
  meas.value: 5.12
- compound: "COc1cccc(C(=O)NCc2nc(N3CCCC3)nc(N3CCOCC3)n2)c1"
  meas.value: 5.09

Let us move to another entry and its pIC50.
// query Looking for the measured pIC50 of O=C(CCn1ccc(=O)[nH]c1=O)N1CCN(C2=CC3CCCCC3N=N2)CC1 (centres undefined) , can you help?
// result 5.74

* * *

Biological target: [Pyruvate dehydrogenase (acetyl-transferring)] kinase isozyme 1, mitochondrial (Homo sapiens)
Sequence (Q15118 whole entry): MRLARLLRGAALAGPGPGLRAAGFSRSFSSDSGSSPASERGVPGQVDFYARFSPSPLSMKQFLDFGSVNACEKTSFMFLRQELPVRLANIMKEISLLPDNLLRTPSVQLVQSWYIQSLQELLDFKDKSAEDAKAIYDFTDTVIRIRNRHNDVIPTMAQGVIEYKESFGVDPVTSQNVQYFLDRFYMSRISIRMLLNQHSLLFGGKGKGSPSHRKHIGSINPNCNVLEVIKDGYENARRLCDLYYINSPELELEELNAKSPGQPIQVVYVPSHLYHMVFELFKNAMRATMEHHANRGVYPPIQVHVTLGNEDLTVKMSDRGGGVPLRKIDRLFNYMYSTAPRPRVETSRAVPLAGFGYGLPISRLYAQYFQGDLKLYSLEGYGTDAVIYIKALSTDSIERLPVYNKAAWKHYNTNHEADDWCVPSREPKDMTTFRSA
Assay: Inhibition of PDK1 (unknown origin) using PDCE1 as substrate incubated for 30 mins by kinase-Glo reagent based luminescence assay
endpoint.name: pEC50
The scale used: pEC50 is minus the common logarithm of the concentration in molar units.

// query Looking for the measured pEC50 of CC(C)NC(=O)COc1coc(CN2CCN(c3ccccc3F)CC2)cc1=O , can you help?
// result 4.93

* * *

System: SAOS-2
Assay: Antiproliferative activity against human Saos2 cells assessed as reduction in cell viability incubated for 72 hrs by MTT assay
Format: functional, cell-based
Details: SAOS-2, 72 h
Entries annotated with measured IC50
Form entry: value (µM) — number only.

- chemical.structure: "Cc1cc(N2CCCCC2)nc(CNC(=O)CNC(=O)c2ccccc2)n1"
  measurement.target: "SAOS-2"
  endpoint.name: "IC50"
  meas.value: 4.8

// query Looking for the measured IC50 of COc1ccc(N2CCn3c2nnc(C(=O)NCCCN(C)C)c3=O)cc1 , can you help?
// result 7.9

// query Looking for the measured IC50 of O=C(COc1coc(CN2CCN(c3cccc(Cl)c3)CC2)cc1=O)NC1CCCC1 , can you help?
// result 7.7

// query Looking for the measured IC50 of O=C(C1=C(CO)C(=O)N(CCCN2CCOCC2)[C@H]1c1ccncc1)c1cccs1 , can you help?
// result 2

* * *

Target: [Pyruvate dehydrogenase (acetyl-transferring)] kinase isozyme 3, mitochondrial (Homo sapiens)
Sequence (Q15120 whole entry): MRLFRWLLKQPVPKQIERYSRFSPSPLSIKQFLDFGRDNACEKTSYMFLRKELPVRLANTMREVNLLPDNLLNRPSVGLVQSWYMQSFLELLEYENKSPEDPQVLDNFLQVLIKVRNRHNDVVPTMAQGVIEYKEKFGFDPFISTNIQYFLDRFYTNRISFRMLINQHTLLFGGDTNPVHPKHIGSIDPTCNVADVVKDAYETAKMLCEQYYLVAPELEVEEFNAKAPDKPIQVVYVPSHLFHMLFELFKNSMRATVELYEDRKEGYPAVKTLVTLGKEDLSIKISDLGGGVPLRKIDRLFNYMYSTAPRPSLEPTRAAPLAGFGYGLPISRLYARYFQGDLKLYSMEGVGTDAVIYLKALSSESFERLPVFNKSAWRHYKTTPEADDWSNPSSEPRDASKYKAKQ
Assay: Inhibition of PDK3 (unknown origin) using PDCE1 as substrate incubated for 30 mins by kinase-Glo reagent based luminescence assay
endpoint.name: pEC50
The scale used: pEC50 is minus the common logarithm of the concentration in molar units.

// query Looking for the measured pEC50 of CC(C)NC(=O)COc1coc(CN2CCN(c3ccccc3F)CC2)cc1=O , can you help?
// result 4.61

* * *

Biological target: [Pyruvate dehydrogenase (acetyl-transferring)] kinase isozyme 2, mitochondrial (Homo sapiens)
endpoint.name: Kd (nM)
Form entry: value (nM) — number only.

// query Looking for the measured Kd of CC(C)NC(=O)COc1coc(CN2CCN(c3ccccc3F)CC2)cc1=O , can you help?
// result 2350
